Source: the NIST ThermoML archive (doi:10.1016/j.fluid.2005.08.018)

- Protocol summary: activity coefficient (dimensionless); of the first substance listed, at infinite dilution; xn = mol fraction of the nth substance listed
- Measurement context: 303.15 K; Liquid; comparative tensimetry; x1 = 0
Observation type: activity coefficient
# answer = number (no unit)

Guide cases for activity coefficient, answers given:
So, CO [methanol] + O ? Its activity coefficient was 1.71

activity coefficient for CCO [ethanol] + O is 4.14

Reported activity coefficient for CCCO [propan-1-ol] + O was 15.3

New cases:
Reported activity coefficient of CCCCO [butan-1-ol] + O : 53.4

---

- Protocol summary: activity coefficient (dimensionless); of the first substance listed, at infinite dilution; xn = mol fraction of the nth substance listed
- Measurement context: 313.15 K; Liquid; comparative tensimetry; x1 = 0
// values below are reported activity coefficient
Answer with a number only.

Solved cases (3 shown):
Lab note: measured activity coefficient of CCO [ethanol] + O was 4.66

activity coefficient in this record for CO [methanol] + O : 1.88

Record CCCCO [butan-1-ol] + O , field activity coefficient: 58.9

For the next question, use this molecule.
GET /value?item= CCCO [propan-1-ol] + O &field=activity coefficient returns 16.7

---

- Protocol summary: activity coefficient (dimensionless); of the first substance listed, at infinite dilution; xn = mol fraction of the nth substance listed
- Measurement context: 323.15 K; Liquid; comparative tensimetry; x1 = 0
Measured activity coefficient by item

Solved cases below.
For record CO [methanol] + O the listed activity coefficient is 2.02

activity coefficient reading for CCO [ethanol] + O : 5.03

***
Lab note: measured activity coefficient of CCCO [propan-1-ol] + O was 18.1

Looking up CCCCO [butan-1-ol] + O , I found its activity coefficient recorded as 61.5

---

- Protocol summary: activity coefficient (dimensionless); of the first substance listed, at infinite dilution; xn = mol fraction of the nth substance listed
- Measurement context: 273.35 K; Liquid; headspace analysis; x1 = 0
activity coefficient overview

Here's what some known entries look like.
activity coefficient for CO [methanol] + O is 1.23

The reported activity coefficient of the compound CCCCCO [pentan-1-ol] + O was 121

The compound CCO [ethanol] + O showed activity coefficient equal to 2.54

Others:
Recorded activity coefficient (compound CCCCO [butan-1-ol] + O ): 32.6

CCCO [propan-1-ol] + O has a reported activity coefficient of 8.9

---

- Protocol summary: activity coefficient (dimensionless); of the first substance listed, at infinite dilution; xn = mol fraction of the nth substance listed
- Measurement context: 283.15 K; Liquid; headspace analysis; x1 = 0
Observation type: activity coefficient
In your answer, state the number alone without any accompanying words.

Lab note: CCCCCO [pentan-1-ol] + O gave activity coefficient of 156

compound CCO [ethanol] + O , activity coefficient observed: 3.13

Quick note, activity coefficient for CCCCO [butan-1-ol] + O landed at 40.4

Value of activity coefficient reported for the compound CO [methanol] + O is 1.4

We next turn to a different compound, shown below.
activity coefficient in this record for CCCO [propan-1-ol] + O : 11.2

---

- Protocol summary: activity coefficient (dimensionless); of the first substance listed, at infinite dilution; xn = mol fraction of the nth substance listed
- Measurement context: 293.15 K; Liquid; headspace analysis; x1 = 0
Observation type: activity coefficient
Give your answer as a number; write no unit.

Study these solved cases before continuing.
# compound CCCCO [butan-1-ol] + O ; its activity coefficient = 48.4

The compound listed as CCCCCO [pentan-1-ol] + O shows activity coefficient equal to 184

# compound CCCO [propan-1-ol] + O ; its activity coefficient = 13.5

Below: the item to evaluate.
So, CO [methanol] + O ? Its activity coefficient was 1.55

---

- Protocol summary: activity coefficient (dimensionless); of the first substance listed, at infinite dilution; xn = mol fraction of the nth substance listed
- Measurement context: 318.15 K; Liquid; comparative tensimetry; x1 = 0
Observation type: activity coefficient
Note: the reply should be a number with no unit written.

Notebook: CCO [ethanol] + O , activity coefficient read as 4.85

Input CCCO [propan-1-ol] + O . Output activity coefficient: 17.5

activity coefficient reported for this compound CO [methanol] + O : 1.95

Kindly consider the entry below.
activity coefficient measured on CCCCO [butan-1-ol] + O = 60.2

---

- Protocol summary: activity coefficient (dimensionless); of the first substance listed, at infinite dilution; xn = mol fraction of the nth substance listed
- Measurement context: 333.15 K; Liquid; comparative tensimetry; x1 = 0
Form field: activity coefficient (one value per entry).
Just the number, please, no unit attached.

Worked set:
Lab note: CCO [ethanol] + O gave activity coefficient of 5.3

For this compound ( CCCO [propan-1-ol] + O ), measured activity coefficient is 19

Further cases:
activity coefficient for CO [methanol] + O is 2.16

activity coefficient reported for this compound CCCCO [butan-1-ol] + O : 63.4

---

Reported values of activity coefficient for individual entries
- Protocol summary: activity coefficient (dimensionless); of the first substance listed, at infinite dilution; xn = mol fraction of the nth substance listed
- Measurement context: 308.15 K; Liquid; comparative tensimetry; x1 = 0
Quick one: just the number, no unit, thanks!

Consider the following illustrative entries.
Looking up CCCO [propan-1-ol] + O , I see its activity coefficient listed as 16.1

The reported value for CCCCO [butan-1-ol] + O in terms of activity coefficient is 57.2

For record CO [methanol] + O the listed activity coefficient is 1.8

Further cases:
The compound CCO [ethanol] + O showed activity coefficient equal to 4.43

---

- Protocol summary: activity coefficient (dimensionless); of the first substance listed, at infinite dilution; xn = mol fraction of the nth substance listed
- Measurement context: 328.15 K; Liquid; comparative tensimetry; x1 = 0
Observation type: activity coefficient
Number, no unit, nothing else.

Sample CCCCO [butan-1-ol] + O ; activity coefficient observed: 62.8

// field: activity coefficient; key: CCCO [propan-1-ol] + O ; value = 18.6

activity coefficient for CCO [ethanol] + O is 5.2

Turning now to a further compound:
Please fill in: activity coefficient reported for CO [methanol] + O = 2.09
